system: Staphylococcus aureus MW2 delta-mecA (mecA-); experiment: IC50 (growth, competition assay); settings: fluorescent label: DsRed; cefoxitin: subinhibitory
pIC50: −log10 of the molar value.
measured.metric: pIC50

{"columns": ["compound", "value.measured"],
 "data": [
  ["CC(C)(C)c1ccc(S(=O)(=O)/C=C/C#N)cc1", "> 5.01"],
  ["O=C(O[C@@H]1Cc2c(O)cc(O)cc2O[C@@H]1c1cc(O)c(=O)c2c(O)c(O)cc([C@H]3Oc4cc(O)cc(O)c4C[C@H]3O)c2c1)c1cc(O)c(O)c(O)c1", 4.83],
  ["C[C@@H](O)[C@H]1C(=O)N2C(C(=O)O)=C(S[C@@H]3CN[C@H](C(=O)N(C)C)C3)[C@H](C)[C@H]12", 4.80],
  ["CC1OC(n2cc(F)c(=O)[nH]c2=O)C(O)C1O (stereo not drawn)", "> 5.01"],
  ["c1ccc(-c2ccc(C(c3ccccc3)n3ccnc3)cc2)cc1 (stereo not drawn)", 4.77]
]}

Give its pIC50 value. Item: Cc1nnc(SCC2=C(C(=O)O)N3C(=O)[C@@H](NC(=O)Cn4cnnn4)[C@H]3SC2)s1 [Cefazolin sodium]
> 5.01

Look at this compound and give its reported pIC50. Cc1cc(C(C#N)c2ccc(Cl)cc2)c(Cl)cc1NC(=O)c1cc(I)cc(I)c1O (stereo not drawn)
> 5.01
